molecular target: MDM2 (Homo sapiens); experiment: Kd MDM2 (nM)
Sequence (Q00987 whole entry, looked up): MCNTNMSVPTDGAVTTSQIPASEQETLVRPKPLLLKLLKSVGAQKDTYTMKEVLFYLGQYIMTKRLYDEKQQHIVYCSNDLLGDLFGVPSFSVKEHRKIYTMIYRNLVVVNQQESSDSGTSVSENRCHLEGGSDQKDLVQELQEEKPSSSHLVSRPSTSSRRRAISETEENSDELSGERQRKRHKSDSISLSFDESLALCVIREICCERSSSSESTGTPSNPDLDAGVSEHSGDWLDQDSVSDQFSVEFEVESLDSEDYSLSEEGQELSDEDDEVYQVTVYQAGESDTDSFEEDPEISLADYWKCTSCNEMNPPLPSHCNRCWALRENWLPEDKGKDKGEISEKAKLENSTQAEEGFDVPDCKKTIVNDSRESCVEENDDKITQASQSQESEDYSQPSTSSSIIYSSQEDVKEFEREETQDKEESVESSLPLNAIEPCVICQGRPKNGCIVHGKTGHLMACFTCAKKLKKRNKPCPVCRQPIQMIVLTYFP
recorded endpoint: pKd
# log scale: pKd equals minus log10 of the concentration in mol/L

substance Ac-LTYEHYWAQLTSK-NH2 [SEQ ID NO: 67 | 8b] , pKd observed: 5.57
